- measurement.notes: HPAF-II Cancer Cell Toxicity qHTS against the NCATS CANVASS Library (AID 1347346); further: nearly all actives have a fitted effect of over 55% in size
- assay.context: HPAF-II viability, CellTiter-Glo ATP luminescence, 72 h; series mostly up to 38.3 µM
Inconclusive results are not listed. Calls of active or inactive are those of the source. The call rests on the fitted dose curve; in most records, active means well fitted cell-killing curve with a large enough effect; inconclusive means small, poorly fitted or top-dose-only effect; inactive means flat fitted curve, though single readings scatter.
Please reply with one of these outcomes: T (active), F (inactive)

Observe how each entry below is paired with its result.
CC[C@]12C=CCN3CC[C@]4(C(=C(C(=O)OC)C1)Nc1ccccc14)[C@@H]32 : F
C=CC(C)(C)[C@@]12C[C@H]3C(=O)N/C(=C\c4cnc[nH]4)C(=O)N3[C@@H]1Nc1ccccc12 : F
CO[C@@H](/C=C/CC/C=C/C(=O)O)[C@@H](O)[C@H](C)/C=C(\C)[C@H](O)[C@H](C)C(=O)CCCC1CC(=O)NC(=O)C1 : F
C=C[C@H]1CN2CCc3c([nH]c4cccc(OC)c34)[C@@H]2C[C@@H]1/C(=C\OC)C(=O)OC : F

Turning now to a further molecule:
INPUT: Can you look up the reported call for CC(C)CC1C(=O)O[C@H](C(C)C)C(=O)N(C)C(CC(C)C)C(=O)O[C@@H](C(C)C)C(=O)N(C)C(CC(C)C)C(=O)O[C@H](C(C)C)C(=O)N(C)C(CC(C)C)C(=O)O[C@@H](C(C)C)C(=O)N1C (stereo not given in full) for me?
OUTPUT: T

###

- assayed.target: Peroxisome proliferator-activated receptor gamma (Homo sapiens) (UniProt P37231)
- Sequence (P37231 whole entry, looked up): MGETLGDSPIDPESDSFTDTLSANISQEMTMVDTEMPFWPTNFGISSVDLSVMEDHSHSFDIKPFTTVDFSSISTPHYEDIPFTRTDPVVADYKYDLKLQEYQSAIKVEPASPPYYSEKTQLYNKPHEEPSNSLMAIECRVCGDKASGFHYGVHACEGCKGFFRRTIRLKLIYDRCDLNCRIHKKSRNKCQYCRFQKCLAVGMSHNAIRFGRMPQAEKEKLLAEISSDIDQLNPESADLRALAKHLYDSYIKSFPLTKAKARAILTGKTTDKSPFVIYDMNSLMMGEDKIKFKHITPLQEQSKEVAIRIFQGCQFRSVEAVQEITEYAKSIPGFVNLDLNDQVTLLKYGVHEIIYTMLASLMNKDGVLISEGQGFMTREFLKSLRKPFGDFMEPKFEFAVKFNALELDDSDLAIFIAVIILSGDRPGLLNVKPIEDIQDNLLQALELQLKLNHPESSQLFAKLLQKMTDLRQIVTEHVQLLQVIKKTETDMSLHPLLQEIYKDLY
- measurement.notes: qHTS assay for small molecule agonists of peroxisome proliferator-activated receptor gamma signaling (AID 588536)
- assay.context: HEK293 PPARg-UAS-bla, beta-lactamase ratio, 16 h, percent of rosiglitazone response, DMSO as zero; series mostly up to 76.7 µM
Records with an inconclusive call do not appear. Calls of active or inactive are those of the source. Calls come from the whole dose curve; as a rule, active = well fitted curve in the direction sought with a large enough effect in the signal ratio, with a control signal flat (not every such curve was filed as active); inconclusive = small, poorly fitted or top-dose-only effect, or effect the other way, or a change in a side signal; inactive = no such curve, though single readings can be large or run the other way; the % refers to the signal ratio.
experimental.readout: outcome

Example cases with answers are listed next.
COC1=CC(=O)OC(CCc2ccccc2)C1 (stereo not given) : inactive
C[C@H]1CCCC(=O)CCC/C=C/c2cc(O)cc(O)c2C(=O)O1 : inactive
CCC(=O)Nc1ccc(Cl)c(Cl)c1 : inactive
C=CC(=C)C : inactive
CCSC(=O)Cl : inactive
ClC1=C(Cl)C2(Cl)C3C4CC(C5OC45)C3C1(Cl)C2(Cl)Cl (stereo not given) : inactive
Clc1cc(Cl)c(-c2cc(Cl)c(Cl)cc2Cl)cc1Cl : inactive
c1ccc(N=Nc2ccccc2)cc1 : inactive
Clc1nc(Cl)nc(Cl)n1 : inactive
CCCCOC(=O)c1ccccc1C(=O)OCCCC : inactive

GET /values?item= "Cc1ccc(O)c(C)c1" &system= Peroxisome proliferator-activated receptor gamma (Homo sapiens) (UniProt P37231) returns outcome: inactive

GET /values?item= "CC(C)OC(=O)Nc1cccc(Cl)c1" &system= Peroxisome proliferator-activated receptor gamma (Homo sapiens) (UniProt P37231) returns outcome: inactive

GET /values?item= "CN=C=S" &system= Peroxisome proliferator-activated receptor gamma (Homo sapiens) (UniProt P37231) returns outcome: inactive

GET /values?item= "CC(Cl)Cl" &system= Peroxisome proliferator-activated receptor gamma (Homo sapiens) (UniProt P37231) returns outcome: inactive

GET /values?item= "O=[N+]([O-])c1ccc(Cl)c(Cl)c1" &system= Peroxisome proliferator-activated receptor gamma (Homo sapiens) (UniProt P37231) returns outcome: inactive

GET /values?item= C=CC1CC=CCC1 (stereo not given) &system= Peroxisome proliferator-activated receptor gamma (Homo sapiens) (UniProt P37231) returns outcome: inactive

GET /values?item= CCS(=O)CCSP(=O)(OC)OC (stereo not given) &system= Peroxisome proliferator-activated receptor gamma (Homo sapiens) (UniProt P37231) returns outcome: inactive

GET /values?item= "CC(C)(c1ccccc1)c1ccc(O)cc1" &system= Peroxisome proliferator-activated receptor gamma (Homo sapiens) (UniProt P37231) returns outcome: inactive

GET /values?item= "COc1cc(CNC(=O)CCCC/C=C/C(C)C)ccc1O" &system= Peroxisome proliferator-activated receptor gamma (Homo sapiens) (UniProt P37231) returns outcome: inactive

GET /values?item= "ClCBr" &system= Peroxisome proliferator-activated receptor gamma (Homo sapiens) (UniProt P37231) returns outcome: inactive

GET /values?item= "COc1nc(NC(C)C)nc(NC(C)C)n1" &system= Peroxisome proliferator-activated receptor gamma (Homo sapiens) (UniProt P37231) returns outcome: inactive

GET /values?item= "CCCOC(=O)c1ccccc1C(=O)OCCC" &system= Peroxisome proliferator-activated receptor gamma (Homo sapiens) (UniProt P37231) returns outcome: inactive

GET /values?item= C=C(C)C(=O)OCC1CO1 (stereo not given) &system= Peroxisome proliferator-activated receptor gamma (Homo sapiens) (UniProt P37231) returns outcome: inactive

GET /values?item= COP(N)(=O)SC (stereo not given) &system= Peroxisome proliferator-activated receptor gamma (Homo sapiens) (UniProt P37231) returns outcome: inactive

GET /values?item= "Clc1cccc(C(Cl)(Cl)Cl)n1" &system= Peroxisome proliferator-activated receptor gamma (Homo sapiens) (UniProt P37231) returns outcome: inactive
